Below, each entry is listed alongside its reported GTP binding, percent of control.
target: GTPase HRas (Homo sapiens); assay: Ras wt fluorescent GTP loading blockade – biochemical, wildtype, multiplex bead flow cytometry, dose response (AID 1335); conditions: bead-based flow cytometry, Bodipy-GTP binding to GST-Ras; at 100 µM (top of the series) unless noted
Just the number in %, nothing appended.

The following molecules have reported results that may help.
molecule	property-label	measure-unit	meas-value
C=C(C)COc1ccc(-c2n[nH]c(C)c2-c2ccc(Br)cc2)c(O)c1	GTP binding, percent of control	%	78.5
O=C1/C(=C\c2ccc(-c3ccccc3Cl)o2)SC(=S)N1CC1CCCO1 (stereo not given)	GTP binding, percent of control	%	35.9
Cc1ccc(Nc2cc(C(=O)O)c3ccccc3n2)c(C)c1	GTP binding, percent of control	%	83.7
COc1cc(/C=C/C(=O)Nc2ccc3nc4n(c(=O)c3c2)CCCC4)cc(OC)c1OC	GTP binding, percent of control	%	72
COc1cc2[nH]c(=S)nc(NCc3ccccn3)c2cc1OC	GTP binding, percent of control	%	71.7
Cc1ccc(OCCSc2nc3ccccc3n2CC(=O)O)c(C)c1	GTP binding, percent of control	%	85
O=C(CSc1ncccc1C(=O)O)c1ccc2ccccc2c1	GTP binding, percent of control	%	66.6
CC(=O)N1C(=O)/C(=C2\SC(=S)N(NC(=O)c3ccc(O)cc3)C2=O)c2ccccc21	GTP binding, percent of control	%	70.8

Requested read-out: GTP binding, percent of control. Entry: C(=N\Nc1nn2cnnc2c2ccccc12)/c1ccco1
64.2

Requested read-out: GTP binding, percent of control. Entry: CCN1/C(=C/C=C/c2oc3ccc4ccccc4c3[n+]2CC)Oc2ccc3ccccc3c21
108

Requested read-out: GTP binding, percent of control. Entry: COC(=O)c1ccccc1NC(=O)CSCC(=O)Nc1ccccc1OC
81.9
